Where do these numbers come from? They come from patent US6613308B2.

Assay: in vivo
Conditions: Sprague Dawley, rat, po, 7 mg powder
value.kind: concentration at 480 min (ng/mL)
// units = ng/mL; emit number, no label

# query: concentration at 480 min of entry CC(C(=O)O)c1cccc(C(=O)c2ccccc2)c1 (stereo not shown)
1000

* * *

Test: in vivo
Settings: rat, po
value.kind: concentration at 2 min (ng/mL)
// units = ng/mL; emit number, no label

# query: concentration at 2 min of entry N[C@@H](Cc1ccc(O)c(O)c1)C(=O)O [L-Dopa, levodopa]
1000

* * *

Assay: in vivo
Settings: rat, 2 mg
value.kind: bioavailability

# query: bioavailability of entry N[C@@H](Cc1ccc(O)c(O)c1)C(=O)O
~75%

* * *

Assay: in vivo
Conditions: Sprague Dawley, rat, po, 7 mg powder
value.kind: concentration at 5 min (ng/mL)
// units = ng/mL; emit number, no label

# query: concentration at 5 min of entry CC(C(=O)O)c1cccc(C(=O)c2ccccc2)c1 (stereo not shown)
1700

* * *

Assay: in vivo
Settings: rat
value.kind: concentration at 2 min (ng/mL)
// units = ng/mL; emit number, no label

# query: concentration at 2 min of entry N[C@@H](Cc1ccc(O)c(O)c1)C(=O)O [L-Dopa, levodopa]
5000

* * *

Experiment: in vivo
Conditions: Sprague Dawley, rat, 7 mg powder
value.kind: concentration at 360 min
Could you kindly put the unit after your number?

# query: concentration at 360 min of entry CC(C(=O)O)c1cccc(C(=O)c2ccccc2)c1 (stereo not shown)
1800 ng/mL

* * *

Test: in vivo
Conditions: Sprague Dawley, rat, 7 mg powder
value.kind: concentration at 240 min (ng/mL)
// units = ng/mL; emit number, no label

# query: concentration at 240 min of entry CC(C(=O)O)c1cccc(C(=O)c2ccccc2)c1 (stereo not shown) [Ketoprofen]
1800

* * *

Assay: in vivo
Conditions: Sprague Dawley, rat, po, 7 mg powder
value.kind: concentration at 360 min (ng/mL)
// units = ng/mL; emit number, no label

# query: concentration at 360 min of entry CC(C(=O)O)c1cccc(C(=O)c2ccccc2)c1 (stereo not shown) [Ketoprofen]
1000

* * *

Assay: in vivo
Conditions: Sprague Dawley, rat, 7 mg powder
value.kind: concentration at 60 min (ng/mL)
// units = ng/mL; emit number, no label

# query: concentration at 60 min of entry CC(C(=O)O)c1cccc(C(=O)c2ccccc2)c1 (stereo not shown) [Ketoprofen]
4500

* * *

Assay: in vivo
Conditions: Sprague Dawley, rat, po, 7 mg powder
value.kind: concentration at 60 min (ng/mL)
// units = ng/mL; emit number, no label

# query: concentration at 60 min of entry CC(C(=O)O)c1cccc(C(=O)c2ccccc2)c1 (stereo not shown)
2000

* * *

Experiment: in vivo
Details: Sprague Dawley, rat, 7 mg powder
value.kind: concentration at 480 min (ng/mL)
// units = ng/mL; emit number, no label

# query: concentration at 480 min of entry CC(C(=O)O)c1cccc(C(=O)c2ccccc2)c1 (stereo not shown)
1300

* * *

Assay: in vivo
Conditions: Sprague Dawley, rat, 7 mg powder
value.kind: concentration at 5 min (ng/mL)
// units = ng/mL; emit number, no label

# query: concentration at 5 min of entry CC(C(=O)O)c1cccc(C(=O)c2ccccc2)c1 (stereo not shown)
9600

* * *

Assay: in vivo
Conditions: Sprague Dawley, rat, po, 7 mg powder
value.kind: concentration at 120 min (ng/mL)
// units = ng/mL; emit number, no label

# query: concentration at 120 min of entry CC(C(=O)O)c1cccc(C(=O)c2ccccc2)c1 (stereo not shown)
1700

* * *

Assay: in vivo
Conditions: rat, po, 2 mg
value.kind: bioavailability at 15 min (%)
// units = %; emit number, no label

# query: bioavailability at 15 min of entry N[C@@H](Cc1ccc(O)c(O)c1)C(=O)O
9

* * *

Test: in vivo
Conditions: Sprague Dawley, rat, 7 mg powder
value.kind: concentration at 15 min (ng/mL)
// units = ng/mL; emit number, no label

# query: concentration at 15 min of entry CC(C(=O)O)c1cccc(C(=O)c2ccccc2)c1 (stereo not shown) [Ketoprofen]
7600
